- Test system: H9c2 cardiomyocytes, 2-deoxyglucose stress, ATP luminescence, 2 h
- testMethodNotes: H9c2 cell survival under 2-deoxyglucose stress – uHTS hits, dose response (AID 588780)
Calls of active or inactive are those of the source.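 Rule for the calls: active = compounds whose fitted half-maximal concentration in the cell-protection dose series is at or below a set limit; inactive = the rest.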
Returns: one label drawn from 1 (yes) for active, 0 (no) for inactive

Q. Could you please tell me the result logged for Cc1ccc(N2CC(C(=O)NCc3n[nH]c(=O)c4ccccc34)CC2=O)cc1C (stereo not given) in this assay?
A. 0 (no)

Q. Record request — test call for O=C(N/N=C/c1cn(-c2ccccc2)nc1-c1cccnc1)c1cccnc1
A. 0 (no)

Q. Please state the recorded outcome for this compound: COc1ccc(CCn2c(=N)c(C(=O)NCC3CCCO3)cc3c(=O)n4cccc(C)c4nc32)cc1OC (stereo not given)
A. 0 (no)

Q. GET /call?item= COc1ccc(S(=O)(=O)N(CCCN2CCCC2=O)Cc2cc3cc(C)c(C)cc3[nH]c2=O)cc1 returns the recorded outcome of this test.
A. 1 (yes)

Q. Please let me know the test result on file for N#Cc1ccccc1S(=O)(=O)N1CCN(c2nc(-c3cccnc3)nc3ccccc23)CC1 .
A. 0 (no)

###

- System: H9c2 cardiomyocytes, 2-deoxyglucose stress, ATP luminescence, 2 h
- testMethodNotes: H9c2 cell survival under 2-deoxyglucose stress – uHTS hits, dose response (AID 588780)
Activity calls are given as the source filed them.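 The calls were made as follows: active = compounds whose fitted half-maximal concentration in the cell-protection dose series is at or below a set limit; inactive = the rest.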
Pick one and only one: T (active), F (inactive)

Q. Tell me the assay call for O=C(O)c1nn(CCOc2ccc(Br)cc2)c(=O)c2ccccc12 please.
A. F

Q. Tell me the recorded outcome of this test for COc1ccc(NS(=O)(=O)c2cc(NC(=O)Cc3n[nH]c(=O)c4ccccc34)ccc2OC)cc1 .
A. F

Q. Could you check what this test reported for Oc1c(Br)cc(Cl)cc1C=Nc1ccccc1Br ?
A. F

Q. Called result for O=C1COc2ccc(-c3n[nH]c(=O)c4ccccc34)cc2N1
A. F

Q. Hi, do you know how CCOCCn1ccc2c(OCC(=O)Nc3cc(OC)ccc3OC)cccc2c1=O came out in this test?
A. F

Q. Hello, I am checking results. What call was entered for O=C(Cn1[nH]c(=O)c2ccccc2c1=O)NC1CCCCCC1 ?
A. F

Q. What did this assay record as the result for COc1ccc(-c2nc(NC(=O)c3ccc(OCC(=O)N4CCOCC4)c(OC)c3)sc2C)cc1 ?
A. F

Q. Field: outcome | Entry: COCCOC(=O)N/C=C\c1nc2ccccc2c(=O)[nH]1
A. T

Q. Hi team, can someone confirm the assay call for CCOc1cccc(Nc2cc3n(c(=O)n2)CCc2cc(OC)c(OC)cc2-3)c1 ?
A. T

Q. Hello, I am checking results. What call was entered for O=C(CSc1nc2ccccc2c(=O)[nH]1)c1ccc(O)cc1O ?
A. F

Q. I would be grateful if you could indicate the recorded call for COc1ccccc1CN(C)C(=O)c1cc(-c2cc(OC)c(OC)c(OC)c2)nc2ccccc12 .
A. T

###

- System: H9c2 cardiomyocytes, 2-deoxyglucose stress, ATP luminescence, 2 h
- testMethodNotes: H9c2 cell survival under 2-deoxyglucose stress – uHTS hits, dose response (AID 588780)
The source made the active and inactive calls.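 How the source made its calls: active means compounds whose fitted half-maximal concentration in the cell-protection dose series is at or below a set limit; inactive means the rest.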
Choose one outcome from this list and give only that: 1 = active, -1 = inactive

Q. What is the recorded call for this molecule in the test? CCN(CC)c1ccc(C2C(C(=O)OC(C)C)C(=O)CC(C)(O)C2C(=O)OC(C)C)cc1 (stereo not given)
A. 1

Q. Fill in: this test's call for C[C@H](CO)N1C[C@H](C)[C@@H](CN(C)C(=O)Nc2ccc3c(c2)OCO3)Oc2c(NC(=O)Nc3ccc(C(F)(F)F)cc3)cccc2C1=O is ___
A. -1

Q. In this assay, the call recorded for COc1ccc2[nH]c(=O)c(CNc3ccc(C)c(C)c3)cc2c1 was what?
A. -1

Q. Call for entry CCOC(=O)Cc1n[nH]c(=O)c2ccccc12 :
A. -1

Q. Could you check what this test reported for O=C(NNC(=O)c1ccccc1OCc1ccccc1Cl)c1csc(N2CCOCC2)n1 ?
A. 1

Q. Look up the recorded call for O=C(N/N=C/c1ccccn1)c1cc(C2CC2)nc2ccccc12 in this test.
A. -1

Q. # lookup: test call for CCOC(=O)C1C(=O)NC(SCC(=O)OC)=C(C#N)C1c1ccccc1OCC (stereo not given)
A. 1

Q. For COc1cccc(C(=O)Nc2cc(C)c3c(=O)oc4ccccc4c3n2)c1 , which call appears in the assay record?
A. -1

Q. Given Cc1ccccc1N(C(=O)c1snc(C(N)=O)c1N)C(C(=O)NCc1ccccc1)c1ccc(O)cc1 (stereo not given) , state the outcome it received in this test.
A. 1

Q. What call does the record list for COc1cccc(/C=N/Nc2ncnc3scc(-c4ccccc4)c23)c1OC ?
A. -1

###

- Test system: H9c2 cardiomyocytes, 2-deoxyglucose stress, ATP luminescence, 2 h
- testMethodNotes: H9c2 cell survival under 2-deoxyglucose stress – uHTS hits, dose response (AID 588780)
Calls of active or inactive are those of the source.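 The calls were made as follows: active = compounds whose fitted half-maximal concentration in the cell-protection dose series is at or below a set limit; inactive = the rest.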
Result category, one only: T = active, F = inactive

Q. Hello, I am checking results. What call was entered for Cc1c(Cl)cnc(NC(=O)COC(=O)c2ccc([N+](=O)[O-])s2)c1Cl ?
A. F

Q. Give the logged outcome of this assay for the following compound: Cc1ccc(C(C)C)c(OCC(=O)NNC(=O)Cn2[nH]c(=O)c3ccccc3c2=O)c1
A. F

Q. Outcome? CCN(CC)C(=O)c1ccc2c3c(cccc13)C(=O)N(CCc1ccc(OC)c(OC)c1)C2=O
A. T

Q. Please let me know the test result on file for COc1ccccc1-c1cc(NC=O)c2ncc(-c3cccc(C(C)=O)c3)n2c1 .
A. F

Q. Recorded test call requested for O=C1c2ccccc2C(=O)N1CCCCSc1nc2ccccc2c(=O)n1CCCN1CCOCC1
A. F

Q. Returns: the outcome recorded for Cc1ccc(C(c2c(C)n(C)n(-c3ccccc3)c2=O)c2c(C)n(C)n(-c3ccccc3)c2=O)s1 in this assay.
A. F

Q. Could you kindly confirm the outcome this assay logged for CC1CCN(C(=O)COC(=O)c2n[nH]c(=O)c3ccccc23)CC1 ?
A. F

Q. Short answer needed: outcome of this test for CCCCCCn1cnc2c(c1=O)c1nc3ccccc3nc1n2/N=C/c1ccco1 ?
A. F

Q. Returns: the outcome recorded for CCCNC(=O)c1ccc2c(=O)c(O)c(-c3ccc(F)cc3)[nH]c2c1 in this assay.
A. F

Q. What was the test verdict on O=C(Cn1[nH]c(=O)c2ccccc2c1=O)N1CCN(S(=O)(=O)c2ccc(Cl)cc2)CC1 ?
A. F

Q. Record request — test call for Cc1ccc(Cn2c(CCNc3nc(-c4ccc(Cl)c([N+](=O)[O-])c4)cs3)nc3cc(C(=O)NCCCO)ccc32)cc1
A. F

Q. Just curious, what result did CC(C)=CCc1ccc(O)c(=O)cc1C(C)C get here?
A. F

Q. Hi, do you know how COc1cc(/C=C/C(=O)OCC(=O)N2c3ccccc3NC(=O)C2(C)C)cc(OC)c1OC came out in this test?
A. F

Q. Called result for COc1cccc(-c2nn3c(-c4ccccn4)nnc3s2)c1
A. T

Q. # outcome recorded in this test, key = COc1cc(-c2cc3nc(NCCc4ccc(S(N)(=O)=O)cc4)ccn3n2)cc(OC)c1OC
A. T

Q. For this compound, state the assay outcome: COc1ccc2cc3cc(C(=O)Nc4cc(OC)c(OC)c(OC)c4)oc3nc2c1
A. T

Q. Can you look up the reported call for CN1CCN(Cc2nc3ccccc3c(=O)[nH]2)CC1 for me?
A. F

Q. Answer briefly: the call reported for Cc1sc2nc(COC(=O)Cc3ccccc3)[nH]c(=O)c2c1C in this assay.
A. F

Q. Please state the recorded outcome for this compound: COc1cccc(-c2cc3nc(C)c(C)c(N4CCN(C(=O)c5ccoc5)CC4)n3n2)c1
A. F

Q. Please share the test call associated with c1cncc(-c2nc(NCC3COc4ccccc4O3)c3ccccc3n2)c1 (stereo not given) .
A. F

###

- System: H9c2 cardiomyocytes, 2-deoxyglucose stress, ATP luminescence, 2 h
- testMethodNotes: H9c2 cell survival under 2-deoxyglucose stress – uHTS hits, dose response (AID 588780)
Active and inactive are the calls of the source.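 How the source made its calls: active means compounds whose fitted half-maximal concentration in the cell-protection dose series is at or below a set limit; inactive means the rest.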
// one of active, inactive, no free text

Q. What did the test return for O=C(c1ccco1)N1CCN(Cc2nc3ccc([N+](=O)[O-])cc3c(=O)n2-c2ccccc2F)CC1 ?
A. inactive

Q. So what was the verdict on CC(OC(=O)Cn1[nH]c(=O)c2ccccc2c1=O)C(=O)Nc1ccccc1[N+](=O)[O-] (centres undefined) in this test?
A. active

Q. Returns: the outcome recorded for CN(C)CCCNc1ccc(-c2n[nH]c(=O)c3ccccc23)cc1[N+](=O)[O-] in this assay.
A. inactive

Q. Given O=C(N/N=C/c1c(O)n(-c2ccccc2Cl)c(=O)c2ccccc12)C1COc2ccccc2O1 (centres undefined) , state the outcome it received in this test.
A. active

Q. Test call, this compound: NC(=O)COc1ccc2oc(=O)cc(-c3cc4ccccc4o3)c2c1
A. inactive

Q. Test call for this compound, please: CCN(C[C@H]1N[C@@](Cc2ccccc2)(C(=O)OC)[C@H]2C(=O)N(C)C(=O)[C@@H]12)S(=O)(=O)c1ccc(OC)cc1
A. inactive

Q. How was N#CCCN(C(=O)COC(=O)CCc1nc2ccccc2c(=O)[nH]1)c1ccc(F)cc1 classified in this test?
A. inactive

Q. I'd appreciate the recorded outcome for C=CC[C@@H](CC(=O)N[C@H](CO)Cc1ccccc1)C(=O)N[C@@H](COC(=O)[C@@H](CC=C)CC(=O)OC(C)(C)C)Cc1ccccc1 from this test.
A. active

Q. Please indicate how the test categorized COc1ccc(NC(=O)C(OC(=O)c2ccc([N+](=O)[O-])o2)c2ccccc2)cc1Cl (centres undefined) .
A. inactive

Q. State the result this test recorded for O=C(COC(=O)Cc1n[nH]c(=O)c2ccccc12)Nc1ccc(Cl)cn1 .
A. inactive

Q. Assay outcome for CC(=O)Nc1ccc(S(=O)(=O)N(Cc2cccnc2)Cc2cc3ccccc3[nH]c2=O)cc1 : what was it?
A. inactive

Q. Look up the recorded call for CSCCC(NS(=O)(=O)c1ccccc1)C(=O)OCc1cc(=O)oc2cc(O)ccc12 (centres undefined) in this test.
A. inactive

Q. Could you kindly confirm the outcome this assay logged for CC(Oc1ccc(F)cc1)C(=O)Nc1nc(-c2ccccn2)cs1 (centres undefined) ?
A. inactive

Q. Entry NS(=O)(=O)c1ccc(CCNC(=O)c2ccc(C#CC3(O)CCCCC3)cc2)cc1 : call = ?
A. inactive

Q. Look up the recorded call for CCN(CC)CCNC(=O)CCc1n[nH]c(=O)c2ccccc12 in this test.
A. inactive

Q. Status in this test for N#C/C(=C\Nc1ccc2c(c1)OCCO2)c1nc2ccccc2[nH]1 ?
A. inactive

Q. Per the assay record, what outcome was assigned to CNC(=O)COC(=O)/C=C/c1cn(-c2ccccc2)nc1-c1ccc(C)o1 ?
A. active

Q. # lookup: test call for O=C(c1ccco1)N1CCN(C(=O)c2cc(-c3ccncc3)nc3ccc(Br)cc23)CC1
A. active

Q. Recorded test outcome, item COc1ccc(-c2cc(C(F)(F)F)n3nc(C(=O)N4CCN(C(=O)c5ccco5)CC4)cc3n2)cc1
A. inactive
